# maps each entry to its GI50
Tested on: RXF 393
Test: NCI tumour cell line growth inhibition, 48 h
Activity calls are given as the source filed them. Rule as the data show it: active = GI50 up to about 1.1 µM and inactive = higher.

O=C1C2=Cc3ccccc3OC2(O)Oc2ccc(O)cc21 (centres undefined) : > 100 µM (inactive)
CN1Cc2ccccc2C2(COc3ccccc3C2=O)C1 (centres undefined) : > 100 µM (inactive)

Task: # lookup: GI50 of CC1OC(O[C@H]2C3C=CO[C@@H](OC4OC(CO)C(O)C(O)C4O)C3[C@@]3(COC(=O)/C=C/c4ccc(O)cc4)O[C@@H]23)C(O)C(O)C1O (some centres undefined)
Output: > 100 µM (inactive)

Task: # lookup: GI50 of CCCCCCCCCCCCC/C=C/[C@@H](O)[C@H](COC1OC(CO)C(OC2OC(CO)C(O)C(OC3(C(=O)O)CC(O)C(NC(C)=O)C(C(O)C(O)CO)O3)C2O)C(O)C1O)N=[N+]=[N-] (some centres undefined)
Output: 20.7 µM (inactive)
